Where these numbers come from: patent US12180193B2

Molecular target: BRAF V600E (Homo sapiens, UniProt P15056, V600E)
Construct: expressed in transfected cells
Sequence (P15056 whole entry V600E): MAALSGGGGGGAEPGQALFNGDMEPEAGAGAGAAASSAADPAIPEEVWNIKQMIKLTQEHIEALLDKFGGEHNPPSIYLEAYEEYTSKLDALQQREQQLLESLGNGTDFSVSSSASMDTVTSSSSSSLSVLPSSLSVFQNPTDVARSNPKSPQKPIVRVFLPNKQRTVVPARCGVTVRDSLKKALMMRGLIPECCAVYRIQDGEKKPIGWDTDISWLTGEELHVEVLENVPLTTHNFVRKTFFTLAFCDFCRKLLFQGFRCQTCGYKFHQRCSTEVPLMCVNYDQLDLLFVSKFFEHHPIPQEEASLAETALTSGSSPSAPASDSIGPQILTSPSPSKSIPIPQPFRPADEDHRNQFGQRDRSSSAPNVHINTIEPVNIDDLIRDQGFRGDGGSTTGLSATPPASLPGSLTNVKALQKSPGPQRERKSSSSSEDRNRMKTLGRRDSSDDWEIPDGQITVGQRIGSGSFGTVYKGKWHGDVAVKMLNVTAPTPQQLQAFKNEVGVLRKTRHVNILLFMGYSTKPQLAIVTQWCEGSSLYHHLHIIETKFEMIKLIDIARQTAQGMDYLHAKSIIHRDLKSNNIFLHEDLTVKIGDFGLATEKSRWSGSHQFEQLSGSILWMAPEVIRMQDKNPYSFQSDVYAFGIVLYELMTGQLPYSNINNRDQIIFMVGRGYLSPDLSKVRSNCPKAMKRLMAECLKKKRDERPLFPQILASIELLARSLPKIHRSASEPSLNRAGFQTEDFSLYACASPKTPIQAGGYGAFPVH
Assay: Cellular assay of target protein degradation, T-Rex 293 cells stably transfected with HA-BRAF_V600E (HA immunofluorescence, high content imaging)
Type: cell-based
Conditions: half maximal degradation, T-Rex 293 HA-BRAF V600E; read-out: BRaf V600E DC50
Measured DC50 of individual entries

Here is how some compounds turned out for DC50.
- compound: "O=C1CC[C@@H](N2Cc3cc([C@H](O)CCN4CCC(c5ccc(-c6cnc7[nH]cc(C(=O)c8c(F)ccc(NS(=O)(=O)N9CC[C@@H](F)C9)c8F)c7c6)cc5)CC4)ccc3C2=O)C(=O)N1"
  measurement: "> 0.5 µM"
- compound: "C[C@H]1CCCN1S(=O)(=O)Nc1ccc(F)c(C(=O)c2c[nH]c3ncc(-c4ccc(N5CCC(CN6CCC(c7ccc8c(c7)CN([C@H]7CCC(=O)NC7=O)C8=O)CC6)CC5)cc4)cc23)c1F"
  measurement: "0.005 to 0.05 µM"
- compound: "O=C1CCC(NC(=O)c2ccc(OCCCCN3CCN(c4ccc(-c5cnc6[nH]cc(C(=O)c7c(F)ccc(NS(=O)(=O)N8CC[C@@H](F)C8)c7F)c6c5)cc4)CC3)cc2F)C(=O)N1 (some centres unmarked)"
  measurement: "0.05 to 0.5 µM"

Problem: Fill in the blank: the reported DC50 of "COc1cc(-c2cnc3[nH]cc(C(=O)c4c(F)ccc(NS(=O)(=O)N5CC[C@@H](F)C5)c4F)c3c2)ccc1N1CCC(CN2CCC(c3ccc4c(c3)CN([C@H]3CCC(=O)NC3=O)C4=O)CC2)CC1" is ____.
Solution: 0.005 to 0.05 µM

Problem: What do you get for "COc1cc(OCCN2CCN(CCOc3ccc(-c4cnc5[nH]cc(C(=O)c6c(F)ccc(NS(=O)(=O)N7CC[C@@H](F)C7)c6F)c5c4)cc3)CC2)cc2c1C(=O)N([C@@H]1CCC(=O)NC1=O)C2" ?
Solution: 0.005 to 0.05 µM
